# Tested on: Escherichia coli
# Protocol summary: Antibacterial activity against Escherichia coli ATCC 35218 after 24 hrs by MTT assay
# Type: functional
# Particulars: ATCC 35218, 24 h
Observation type: MIC

NC[C@H]1O[C@H](O[C@H]2[C@H](O)[C@@H](O[C@H]3O[C@H](CO)[C@@H](O)[C@H](N)[C@H]3O)[C@H](N)C[C@@H]2N)[C@H](O)[C@@H](O)[C@@H]1O ... 3.9 µg/mL
CCOC(=O)/C(=C\Nc1ccc(O)cc1)c1ccc(Cl)cc1 ... 38.9 µg/mL

Please find the next molecule below.
Qu. MIC for `CCOC(=O)/C(=C/Nc1cc(OC)cc(OC)c1)c1ccc(Cl)cc1` ?
Ans. > 50 µg/mL

====

# Test system: Escherichia coli
# Protocol summary: Antibacterial activity against Escherichia coli ATCC 35218 after 24 hrs by MTT assay
# Format: functional
# Particulars: ATCC 35218, 24 h
Consider the following compounds and their measured MIC readings.

Consider the worked cases shown below.
CCOC(=O)/C(=C\Nc1ccc(F)cc1F)c1ccc(Cl)cc1 ... 47.3 µg/mL
CCOC(=O)/C(=C\Nc1cc(F)cc(F)c1)c1ccc(Cl)cc1 ... > 50 µg/mL
CCOC(=O)/C(=C/Nc1cc(Br)c(O)c(Br)c1)c1ccc(Cl)cc1 ... > 50 µg/mL

Qu. Endpoint output: MIC of `CCOC(=O)/C(=C/Nc1cc(Br)c(OC)c(Br)c1)c1ccc(Cl)cc1` . Value?
Ans. > 50 µg/mL

Qu. Item under review: `CCOC(=O)/C(=C/N1CCCc2ccccc21)c1ccc(OC)cc1` . Reported MIC?
Ans. > 50 µg/mL

Qu. Given `CCOC(=O)/C(=C\Nc1cc(OC)cc(OC)c1)c1ccc(Cl)cc1` , state its recorded MIC.
Ans. > 50 µg/mL

Qu. Which MIC value belongs to `CCOC(=O)/C(=C/Nc1cc(Br)c(OCc2ccccc2)c(Br)c1)c1ccc(Cl)cc1` ?
Ans. > 50 µg/mL

Qu. Item under review: `CCOC(=O)/C(=C\Nc1cc(Br)c(O)c(Br)c1)c1ccc(Cl)cc1` . Reported MIC?
Ans. > 50 µg/mL

====

Entries and their MIC values follow.
# System: Escherichia coli
# Protocol summary: Antibacterial activity against Escherichia coli ATCC 35218 after 24 hrs by MTT assay
# Assay type: functional
# Particulars: ATCC 35218, 24 h

Qu. Which value of MIC has been reported for `CCOC(=O)/C(=C/Nc1cc(Cl)cc(Cl)c1)c1ccc(Cl)cc1` in the records?
Ans. > 50 µg/mL

Qu. Value lookup for MIC; key = `CCOC(=O)/C(=C\Nc1cc(Cl)cc(Cl)c1)c1ccc(Cl)cc1`
Ans. > 50 µg/mL

Qu. Name the recorded MIC for `CCOC(=O)/C(=C\Nc1ccccc1F)c1ccc(Cl)cc1` .
Ans. > 50 µg/mL

Qu. Which MIC value belongs to `CCOC(=O)/C(=C/Nc1ccc(F)cc1)c1ccc(Cl)cc1` ?
Ans. > 50 µg/mL

Qu. Record request: MIC value, item `CCOC(=O)/C(=C/Nc1ccc(F)cc1F)c1ccc(Cl)cc1`
Ans. 48 µg/mL

Qu. Give the measured MIC of `CCOC(=O)/C(=C/Nc1ccc(Cl)cc1Cl)c1ccc(Cl)cc1` .
Ans. > 50 µg/mL

Qu. Dear colleague, I am looking for the recorded MIC of the following molecule: `CCOC(=O)/C(=C/Nc1ccc(Br)cc1Br)c1ccc(Cl)cc1`
Ans. > 50 µg/mL

Qu. Consider the molecule `CCOC(=O)/C(=C/Nc1ccc(O)cc1)c1ccc(Cl)cc1` and give its measured MIC.
Ans. > 50 µg/mL

Qu. Endpoint output: MIC of `CCOC(=O)/C(=C/N1CCCc2ccccc21)c1ccc(Cl)cc1` . Value?
Ans. > 50 µg/mL

Qu. Which MIC is reported for this molecule? `CCOC(=O)/C(=C/Nc1ccccc1F)c1ccc(Cl)cc1`
Ans. > 50 µg/mL

Qu. Give its MIC value. Item: `CCOC(=O)/C(=C\Nc1cc(Br)c(OCc2ccccc2)c(Br)c1)c1ccc(Cl)cc1`
Ans. > 50 µg/mL

Qu. Could you share which MIC value was measured for `CCOC(=O)/C(=C\Nc1cc(Br)c(OC)c(Br)c1)c1ccc(Cl)cc1` ?
Ans. 48.6 µg/mL

Qu. Find the recorded MIC belonging to `CCOC(=O)/C(=C/Nc1cc(F)cc(F)c1)c1ccc(Cl)cc1` and report it.
Ans. 13.5 µg/mL
